- SYSTEM UNDER TEST: human RXFP1 (Homo sapiens)
- EXPERIMENT: hRXFP1 HEK293 cAMP assay (HTRF)
- TEST CONTEXT: HEK293 cells stably expressing human RXFP1; 30 min at rt; intracellular cAMP by HTRF
The following compounds are listed with their measured log10 of EC50 values.
ASSAY READOUT: log10 of EC50 (log10 of the value in nM)

COMPOUND	SYSTEM UNDER TEST	ASSAY READOUT	MEAS VALUE
COc1ccc(C2CCN(C(=O)C(C)(C)O)C2)cc1C(=O)Nc1c(C(=O)Nc2ccc(F)c(C(F)(F)F)c2)sc2cc(C(F)(F)F)ccc12 (centres unmarked) [Example 140]	human RXFP1 (Homo sapiens)	log10 of EC50	1.99
COc1ccc(N2CCC(NCCO)C2)cc1C(=O)Nc1c(C(=O)Nc2ccc(F)c(C(F)(F)F)c2)sc2cc(C(F)(F)F)ccc12 (centres unmarked) [Example 66]	human RXFP1 (Homo sapiens)	log10 of EC50	2.95
COc1ccc(C2=NOC3CC(CO)CC23)cc1C(=O)Nc1c(C(=O)Nc2ccc(F)c(C(F)(F)F)c2)sc2cc(C(F)(F)F)ccc12 (single isomer, unassigned)	human RXFP1 (Homo sapiens)	log10 of EC50	0.69
COc1ccc(N2CCC(NCCO)C2)cc1C(=O)Nc1c(C(=O)Nc2ccc(F)c(C(F)(F)F)c2)sc2cc(C(F)(F)F)ccc12 (single isomer, unassigned) [Example 9]	human RXFP1 (Homo sapiens)	log10 of EC50	3.38
COc1ccc(C2CC3CCC(C2)N3CC(N)=O)cc1C(=O)Nc1c(C(=O)Nc2ccc(F)c(C(F)(F)F)c2)sc2cc(C(F)(F)F)ccc12 (centres unmarked)	human RXFP1 (Homo sapiens)	log10 of EC50	2.95
COc1ccc(C(=O)N2CC(CO)C2)cc1C(=O)Nc1c(C(=O)Nc2ccc(F)c(C(F)(F)F)c2)sc2cc(C(F)(F)F)ccc12	human RXFP1 (Homo sapiens)	log10 of EC50	2.17
COc1ccc(C2CCN(C(=O)C3(C)COC3)C2)cc1C(=O)Nc1c(C(=O)Nc2ccc(F)c(C(F)(F)F)c2)sc2cc(C(F)(F)F)ccc12 (centres unmarked)	human RXFP1 (Homo sapiens)	log10 of EC50	2.69
COc1ccc(C2CCC(C)(O)CC2)cc1C(=O)Nc1c(C(=O)Nc2ccc(F)c(C(F)(F)F)c2)sc2cc(C(F)(F)F)ccc12 (single isomer, unassigned) [Example 38]	human RXFP1 (Homo sapiens)	log10 of EC50	2.29
COc1ccc(C2CCCN(C(=O)CO)C2)cc1C(=O)Nc1c(C(=O)Nc2ccc(F)c(C(F)(F)F)c2)sc2cc(C(F)(F)F)ccc12 (single isomer, unassigned) [Example 91]	human RXFP1 (Homo sapiens)	log10 of EC50	1.98
COc1ccc(C2CC3(CNC3)C2)cc1C(=O)Nc1c(C(=O)Nc2ccc(F)c(C(F)(F)F)c2)sc2cc(C(F)(F)F)ccc12	human RXFP1 (Homo sapiens)	log10 of EC50	3.16
COc1ccc(C2CCCN(C(=O)C(C)(C)CO)C2)cc1C(=O)Nc1c(C(=O)Nc2ccc(F)c(C(F)(F)F)c2)sc2cc(C(F)(F)F)ccc12 (single isomer, unassigned) [Example 105]	human RXFP1 (Homo sapiens)	log10 of EC50	2.17

---

- SYSTEM UNDER TEST: human RXFP1 (Homo sapiens)
- EXPERIMENT: hRXFP1 HEK293 cAMP assay (HTRF)
- TEST CONTEXT: HEK293 cells stably expressing human RXFP1; 30 min at rt; intracellular cAMP by HTRF
ASSAY READOUT: log10(EC50) (log10 of the value in µM)

COMPOUND	log10(EC50)
COc1ccc(C2CCCN(CC(=O)N(C)C)C2)cc1C(=O)Nc1c(C(=O)Nc2ccc(F)c(C(F)(F)F)c2)sc2cc(C(F)(F)F)ccc12 (single isomer, unassigned) [Example 101]	0.65
COc1ncc(C(=O)N2CC(O)C2)cc1C(=O)Nc1c(C(=O)Nc2ccc(F)c(C(F)(F)F)c2)sc2cc(C(F)(F)F)ccc12 [Example 173]	-0.75
COc1ccc(C2CCCN(C(=O)CN(C)C)C2)cc1C(=O)Nc1c(C(=O)Nc2ccc(F)c(C(F)(F)F)c2)sc2cc(C(F)(F)F)ccc12 (single isomer, unassigned) [Example 87]	0.06
COc1ccc(C2CCCN(C(=O)C(C)(C)O)C2)cc1C(=O)Nc1c(C(=O)Nc2ccc(F)c(C(F)(F)F)c2)sc2cc(C(F)(F)F)ccc12 (centres unmarked) [Example 92]	-0.78
COc1ccc(C2CCN(CCS(C)(=O)=O)C2)cc1C(=O)Nc1c(C(=O)Nc2ccc(F)c(C(F)(F)F)c2)sc2cc(C(F)(F)F)ccc12 (single isomer, unassigned) [Example 149]	0.08

---

- SYSTEM UNDER TEST: human RXFP1 (Homo sapiens, UniProt Q9HBX9)
- Construct: expressed in transfected cells
- Sequence (Q9HBX9 whole entry): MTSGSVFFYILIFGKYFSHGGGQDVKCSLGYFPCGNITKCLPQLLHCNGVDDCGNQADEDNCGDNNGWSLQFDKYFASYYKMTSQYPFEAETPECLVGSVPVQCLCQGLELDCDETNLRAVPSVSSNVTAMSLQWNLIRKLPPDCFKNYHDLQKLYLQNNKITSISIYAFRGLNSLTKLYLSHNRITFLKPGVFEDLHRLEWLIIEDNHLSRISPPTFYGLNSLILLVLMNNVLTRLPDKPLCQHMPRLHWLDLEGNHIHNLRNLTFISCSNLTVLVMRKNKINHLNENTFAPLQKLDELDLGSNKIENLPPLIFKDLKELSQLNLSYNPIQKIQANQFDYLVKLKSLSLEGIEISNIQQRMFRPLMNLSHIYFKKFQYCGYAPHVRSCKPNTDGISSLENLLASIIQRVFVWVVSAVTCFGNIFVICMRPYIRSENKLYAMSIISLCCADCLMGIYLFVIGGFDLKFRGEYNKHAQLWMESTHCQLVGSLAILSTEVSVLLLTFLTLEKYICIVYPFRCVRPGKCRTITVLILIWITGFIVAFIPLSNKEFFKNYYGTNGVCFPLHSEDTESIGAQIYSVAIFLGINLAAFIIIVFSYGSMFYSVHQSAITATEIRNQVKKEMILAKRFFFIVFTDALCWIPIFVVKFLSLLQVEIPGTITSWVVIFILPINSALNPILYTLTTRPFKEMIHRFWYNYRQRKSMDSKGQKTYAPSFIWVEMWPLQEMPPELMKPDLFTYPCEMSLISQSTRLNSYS
- EXPERIMENT: hRXFP1 HEK293 cAMP assay (HTRF)
- Type: cell-based
- TEST CONTEXT: HEK293 cells stably expressing human RXFP1; 30 min at rt; intracellular cAMP by HTRF
# log10 of EC50 values compiled below
ASSAY READOUT: log10 of EC50 (log10 of the value in nM)

COMPOUND	SYSTEM UNDER TEST	MEAS VALUE
COc1ccc(C2CCCC(NC3COC3)C2)cc1C(=O)Nc1c(C(=O)Nc2ccc(F)c(C(F)(F)F)c2)sc2cc(C(F)(F)F)ccc12 (single isomer, unassigned) [Example 63]	human RXFP1 (Homo sapiens, UniProt Q9HBX9)	3.31
COc1ccc(C2CCCN(CCS(C)(=O)=O)C2)cc1C(=O)Nc1c(C(=O)Nc2ccc(F)c(C(F)(F)F)c2)sc2cc(C(F)(F)F)ccc12 (single isomer, unassigned) [Example 86]	human RXFP1 (Homo sapiens, UniProt Q9HBX9)	3.06
COc1ccc(-c2cc(C(NC(=O)C3CCOCC3)C(F)(F)F)ccc2F)cc1C(=O)Nc1c(C(=O)Nc2ccc(F)c(C(F)(F)F)c2)sc2cc(C(F)(F)F)ccc12 (single isomer, unassigned) [Example 21]	human RXFP1 (Homo sapiens, UniProt Q9HBX9)	2.56
COc1ccc(C(=O)NCC(C)(C)S(C)(=O)=O)cc1C(=O)Nc1c(C(=O)Nc2ccc(F)c(C(F)(F)F)c2)sc2cc(C(F)(F)F)ccc12	human RXFP1 (Homo sapiens, UniProt Q9HBX9)	1.56
COc1ccc(C(=O)N2CC[C@H](O)C2)cc1C(=O)Nc1c(C(=O)Nc2ccc(F)c(C(F)(F)F)c2)sc2cc(C(F)(F)F)ccc12	human RXFP1 (Homo sapiens, UniProt Q9HBX9)	2.61
COc1ccc(-c2noc(C(C)(C)O)n2)cc1C(=O)Nc1c(C(=O)Nc2ccc(F)c(C(F)(F)F)c2)sc2cc(C(F)(F)F)ccc12	human RXFP1 (Homo sapiens, UniProt Q9HBX9)	2.33
COc1ccc(C2CCCN(C(=O)C(C)(C)CO)C2)cc1C(=O)Nc1c(C(=O)Nc2ccc(F)c(C(F)(F)F)c2)sc2cc(C(F)(F)F)ccc12 (single isomer, unassigned) [Example 93]	human RXFP1 (Homo sapiens, UniProt Q9HBX9)	1.68
COc1ccc(C(=O)N2CCC(O)CC2)cc1C(=O)Nc1c(C(=O)Nc2ccc(F)c(C(F)(F)F)c2)sc2cc(C(F)(F)F)ccc12	human RXFP1 (Homo sapiens, UniProt Q9HBX9)	2.13
COc1ccc(C2=NOC3(C2)CN(C(=O)C(C)(C)CO)C3)cc1C(=O)Nc1c(C(=O)Nc2ccc(F)c(C(F)(F)F)c2)sc2cc(C(F)(F)F)ccc12	human RXFP1 (Homo sapiens, UniProt Q9HBX9)	3.05
COc1ccc(C23CCC(C(C)(C)O)(CC2)CC3)cc1C(=O)Nc1c(C(=O)Nc2ccc(F)c(C(F)(F)F)c2)sc2cc(C(F)(F)F)ccc12	human RXFP1 (Homo sapiens, UniProt Q9HBX9)	2.34
COc1ncc(N2CC3(C2)CS(=O)(=O)C3)cc1C(=O)Nc1c(C(=O)Nc2ccc(F)c(C(F)(F)F)c2)sc2cc(C(F)(F)F)ccc12	human RXFP1 (Homo sapiens, UniProt Q9HBX9)	3.13

---

- SYSTEM UNDER TEST: UniProt Q9HBX9
- EXPERIMENT: hRXFP1 HEK293 cAMP assay (HTRF)
- TEST CONTEXT: HEK293 cells stably expressing human RXFP1; 30 min at rt; intracellular cAMP by HTRF
// NB: equality with 900 nM counts as not met; only EC50 strictly below is met

COMPOUND	CAT
COc1ccc(C2CCCN(CCS(C)(=O)=O)C2)cc1C(=O)Nc1c(C(=O)Nc2ccc(F)c(C(F)(F)F)c2)sc2cc(C(F)(F)F)ccc12 (stereo not shown) [Example 100]	not met
COc1ccc(S(=O)(=O)N2CCC[C@@H](NCC(N)=O)C2)cc1C(=O)Nc1c(C(=O)Nc2ccc(F)c(C(F)(F)F)c2)sc2cc(C(F)(F)F)ccc12	not met
COc1ccc(C2CCCN(C3COC3)C2)cc1C(=O)Nc1c(C(=O)Nc2ccc(F)c(C(F)(F)F)c2)sc2cc(C(F)(F)F)ccc12 (stereo not shown) [Example 84]	met
COc1ccc(C2CCCN(C(=O)OC(C)(C)C)C2)cc1C(=O)Nc1c(C(=O)Nc2ccc(F)c(C(F)(F)F)c2)sc2cc(C(F)(F)F)ccc12 (stereo not shown)	met
COc1ccc(C2=NOC3CN(C(=O)CO)CC23)cc1C(=O)Nc1c(C(=O)Nc2ccc(F)c(C(F)(F)F)c2)sc2ccccc12 (single isomer, unassigned)	met
COc1ccc(C2=NOC3CC(NC(=O)CO)CC23)cc1C(=O)Nc1c(C(=O)Nc2ccc(F)c(C(F)(F)F)c2)sc2cc(C(F)(F)F)ccc12 (stereo not shown) [Example 261]	met
COc1ccc(-c2cncc(NS(C)(=O)=O)c2)cc1C(=O)Nc1c(C(=O)Nc2ccc(F)c(C(F)(F)F)c2)sc2cc(C(F)(F)F)ccc12	met
COc1ccc(C2CCN(CC(N)=O)C2)cc1C(=O)Nc1c(C(=O)Nc2ccc(F)c(C(F)(F)F)c2)sc2cc(C(F)(F)F)ccc12 (stereo not shown) [Example 156]	not met
COc1ccc(C2CCCC(O)C2)cc1C(=O)Nc1c(C(=O)Nc2ccc(F)c(C(F)(F)F)c2)sc2cc(C(F)(F)F)ccc12 (single isomer, unassigned) [Example 33]	met
COc1ccc(C2CCC(O)CC2)cc1C(=O)Nc1c(C(=O)Nc2ccc(F)c(C(F)(F)F)c2)sc2cc(C(F)(F)F)ccc12 (single isomer, unassigned) [Example 75]	met
COc1ccc(-c2cc(CNC(=O)C3CCC3)ccc2F)cc1C(=O)Nc1c(C(=O)Nc2ccc(F)c(C(F)(F)F)c2)sc2cc(C(F)(F)F)ccc12	met
COc1ccc(C2=NOC3CC(NC(=O)C(C)(C)O)CC23)cc1C(=O)Nc1c(C(=O)Nc2ccc(F)c(C(F)(F)F)c2)sc2cc(C(F)(F)F)ccc12 (single isomer, unassigned) [Example 262]	met
COc1cc(C)c(C(=O)NCC2(S(C)(=O)=O)CC2)cc1C(=O)Nc1c(C(=O)Nc2ccc(F)c(C(F)(F)F)c2)sc2cc(C(F)(F)F)ccc12	met
COc1ccc(C2CCN(C(=O)C3(O)CC3)C2)cc1C(=O)Nc1c(C(=O)Nc2ccc(F)c(C(F)(F)F)c2)sc2cc(C(F)(F)F)ccc12 (stereo not shown)	met
COc1ccc(C2=NOC3CS(=O)(=O)CC23)cc1C(=O)Nc1c(C(=O)Nc2ccc(F)c(C(F)(F)F)c2)sc2cc(C(F)(F)F)ccc12 (stereo not shown)	met
COCC(=O)N1CCC(c2ccc(OC)c(C(=O)Nc3c(C(=O)Nc4ccc(F)c(C(F)(F)F)c4)sc4cc(C(F)(F)F)ccc34)c2)C1 (stereo not shown)	not met
COc1ccc(S(=O)(=O)N2CCC(C(C)(C)O)CC2)cc1C(=O)Nc1c(C(=O)Nc2ccc(F)c(C(F)(F)F)c2)sc2cc(C(F)(F)F)ccc12	not met
COc1ccc(N2CCCC(C(=O)NC3COC3)C2)cc1C(=O)Nc1c(C(=O)Nc2ccc(F)c(C(F)(F)F)c2)sc2cc(C(F)(F)F)ccc12 (single isomer, unassigned) [Example 229]	not met
COc1ccc(C2=NOC(C(C)(C)O)C2)cc1C(=O)Nc1c(C(=O)Nc2ccc(F)c(C(F)(F)F)c2)sc2cc(C(F)(F)F)ccc12 (single isomer, unassigned) [Example 258]	met
COC(=O)C1CN(c2ccc(OC)c(C(=O)Nc3c(C(=O)Nc4ccc(F)c(C(F)(F)F)c4)sc4cc(C(F)(F)F)ccc34)c2)C1	met
COc1ccc(C(=O)N2CC[C@@H](O)C2)cc1C(=O)Nc1c(C(=O)Nc2ccc(F)c(C(F)(F)F)c2)sc2cc(Cl)ncc12	met
